Target: T1, human CD79b recombinant protein (human, UniProt P40259 29-159)
T1 construct: also called human CD79b ECD antigen; recombinant human CD79b ECD
T1 sequence: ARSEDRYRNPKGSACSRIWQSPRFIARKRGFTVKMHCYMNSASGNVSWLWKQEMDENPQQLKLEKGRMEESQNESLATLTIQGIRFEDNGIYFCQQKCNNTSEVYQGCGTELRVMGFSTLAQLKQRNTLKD
Test: ELISA on recombinant human CD79b ECD; A 450nm
Measured attribute: EC50 (read off the curve)

Binder	EC50 (read off the curve)
hu23D8 (antibody, V domains shown, Humanized antibody; also called humanized 23D8) VH: EQQLLESGGGLVQPGGSLRLSCAVSGLSLSSNAINWVRQAPGKGLEWIGMIYSGGRIEYASWAKGRFTISKDSSKNTVYLQMNSLRAEDTAVYFCAKGMSPSAHSSDIWGPGTLVTVSS VL: EGVMTQSPATLSVSPGERATLSCQASQSISDNLSWYQQKPGQPPRLLIYDASDLASGVPARFSGSGSGTEFTLTISSLQSEDFAVYYCQQDWISSNVDNTFGGGTKVEIK	~0.1 nM
hu44G2 (antibody, V domains shown, Humanized antibody; also called humanized 44G2) VH: EQQLVETGGGLIQPGGSLRLSCAASGFTINIDYWISWVRQAPGKGLEWIGIIDPGDGTTYFAIWVSGRFTISFDNSKNTVYLQMNSLRAEDTAVYFCVREFSASAYQYDLWGPGTLVTVSS VL: ELVMTQSPATLSVSPGERATLSCRASEDIENYLAWYQQKPGQPPRLLIYRASTLSSGVPARFSGSGSGTEFTLTISSLQSEDFAVYYCQQGYRNSNVDNPFGGGTKVEIK	~0.2 nM
ch57B9 (antibody, human IgG1, kappa, V domains shown, Rabbit/human chimeric IgG1 kappa; also called chimeric 57B9) VH: QSVRETGGGLVQPGGSLTLSCEASEFTINIDYWISWVRQAPGKGLEWIGIIDPGDGTTYFAIWVSGRFTITRNTNLNTVDLKMTSLTEADTATYFCAREVSASAYQYDLWGPGTLVTVSS VL: ALVMTQTPSSVSADVGGTVSINCQASEDIESYLAWYQQKPGQPPKLLIYFTSNLASGVPSRFKGSGSGTEYTLTISGVQPDDAATYYCQQGYRNSDVHNPFGGGTEVVVKR	~0.1 nM
ch48H10 (antibody, human IgG1, kappa, V domains shown, Rabbit/human chimeric IgG1 kappa; also called chimeric 48H10) VH: QSVKETGGGLVQPGGSLTLSCKASGFTINIDYWISWVRQAPGKGLEWIGIIDPGDGTTYFAIWVSGRFTISTDNAQNTVDLQMNSLTAADTATYFCAREFSASAYQYDLWGPGTLVTVSS VL: ALVMTQTPSSVSAAVGGTVSINCQASEDIESYLTWYQQKPGQPPKLLMYRASTLSSGVSSRFSASGSGTEFTLTISGVQPDDAATYYCQQGYRNKDVDNPFGGGTEVVVKR	~0.3 nM

In the following, a different binder is considered.
Q: Consider the binder shown here: ch44G2 (antibody, human IgG1, kappa, V domains shown, Rabbit/human chimeric IgG1 kappa; also called chimeric 44G2) VH: QSVRETGGGLVQPGGSLKLSCKASGFTINIDYWISWVRQAPGKGLEWIGIIDPGDGTTYFAIWVSGRFTISFDNTQNTVDLQMNSLTAADTATYFCVREFSASAYQYDLWGPGTLVTVSS VL: DLVMTQTPSSVSAAVGGTVSINCRASEDIENYLAWYQQKPGQPPKLLIYRASTLSSGVSSRFSGSGSGTEFTLTISGVQPDDAATYYCQQGYRNSNVDNPFGGGTEMVVKR What is its recorded EC50 (read off the curve)?
Result: ~0.5 nM
